molecular target: DNA topoisomerase 2-alpha (Homo sapiens) (UniProt P11388); experiment: Inhibition of wild type human topoisomerase-2alpha expressed in Saccharomyces cerevisiae JEL1deltatop1 assessed as inhibition of supercoiled DNA relaxation at 100 to 200 uM using negatively supercoiled pBRDNA as substrate incubated for 15 mins in presence of ATP by gel electrophoresis; details: dose microM 100-200, time 15.0 min
Sequence (P11388 whole entry): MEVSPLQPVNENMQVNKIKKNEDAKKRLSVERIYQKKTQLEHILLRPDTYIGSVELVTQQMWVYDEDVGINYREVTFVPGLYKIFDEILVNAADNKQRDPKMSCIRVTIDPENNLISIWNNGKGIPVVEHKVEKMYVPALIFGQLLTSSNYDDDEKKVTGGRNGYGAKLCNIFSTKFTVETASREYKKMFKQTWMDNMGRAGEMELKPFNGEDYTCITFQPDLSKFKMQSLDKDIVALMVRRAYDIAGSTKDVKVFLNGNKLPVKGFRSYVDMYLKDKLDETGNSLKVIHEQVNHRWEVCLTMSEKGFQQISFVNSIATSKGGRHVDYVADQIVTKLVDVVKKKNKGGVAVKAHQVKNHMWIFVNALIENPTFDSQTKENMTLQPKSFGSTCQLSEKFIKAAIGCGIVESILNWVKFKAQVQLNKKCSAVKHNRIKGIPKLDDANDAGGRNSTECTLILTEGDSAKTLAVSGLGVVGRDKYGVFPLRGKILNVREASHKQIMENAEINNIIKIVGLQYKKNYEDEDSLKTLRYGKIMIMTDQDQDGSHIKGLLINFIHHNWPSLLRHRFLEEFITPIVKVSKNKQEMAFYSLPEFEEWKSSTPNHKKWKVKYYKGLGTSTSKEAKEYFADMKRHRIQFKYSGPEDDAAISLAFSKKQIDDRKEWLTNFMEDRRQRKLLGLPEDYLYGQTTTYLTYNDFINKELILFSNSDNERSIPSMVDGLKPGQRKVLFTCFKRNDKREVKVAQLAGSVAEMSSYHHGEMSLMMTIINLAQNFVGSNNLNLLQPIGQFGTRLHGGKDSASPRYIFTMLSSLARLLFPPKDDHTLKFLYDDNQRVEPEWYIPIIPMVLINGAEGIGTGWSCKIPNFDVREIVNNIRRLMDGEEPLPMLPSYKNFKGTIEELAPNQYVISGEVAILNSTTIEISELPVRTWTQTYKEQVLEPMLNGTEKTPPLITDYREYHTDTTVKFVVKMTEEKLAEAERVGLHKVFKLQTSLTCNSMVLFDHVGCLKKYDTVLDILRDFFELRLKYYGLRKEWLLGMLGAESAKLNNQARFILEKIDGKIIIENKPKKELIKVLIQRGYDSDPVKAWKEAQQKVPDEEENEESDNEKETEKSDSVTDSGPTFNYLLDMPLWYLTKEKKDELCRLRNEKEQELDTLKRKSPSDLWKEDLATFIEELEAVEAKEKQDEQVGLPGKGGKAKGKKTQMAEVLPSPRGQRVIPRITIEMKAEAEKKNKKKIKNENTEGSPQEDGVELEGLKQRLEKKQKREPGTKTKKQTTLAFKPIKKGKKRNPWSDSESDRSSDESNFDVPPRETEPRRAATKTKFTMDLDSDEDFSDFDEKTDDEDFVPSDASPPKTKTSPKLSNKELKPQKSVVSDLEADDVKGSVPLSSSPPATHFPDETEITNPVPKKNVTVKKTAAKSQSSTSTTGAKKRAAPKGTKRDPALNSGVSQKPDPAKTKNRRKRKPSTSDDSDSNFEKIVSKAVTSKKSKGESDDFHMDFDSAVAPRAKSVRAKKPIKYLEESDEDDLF
Activity calls are given as the source filed them. The calls are words filed in the database; no cut-off is given here.
Outcomes: active, inactive

- compound_smiles: "COc1cc([C@@H]2c3cc4c(cc3[C@@H](O[C@@H]3O[C@@H]5CO[C@@H](C)O[C@H]5[C@H](O)[C@H]3O)[C@H]3COC(=O)[C@H]23)OCO4)c(Cl)c(OC)c1O"
  label_class: "active"
- compound_smiles: "COc1cc([C@@H]2c3cc4c(cc3[C@@H](O)[C@H]3COC(=O)[C@H]23)OCO4)c(Cl)c(OC)c1O"
  label_class: "active"
- compound_smiles: "COc1cc([C@@H]2c3cc4c(cc3[C@H](O)[C@H]3COC(=O)[C@H]23)OCO4)cc(OC)c1OC"
  label_class: "inactive"

These data points were gathered from ChEMBL document CHEMBL4699563.
